PROTOCOL DETAILS: Broad band UVB and UVA absorption (SPF and UVA/UVB ratio) of sunscreens
Type: physicochemical
EXPERIMENTAL PARAMETERS: 10% (weight %) sunscreen
MEASURE NAME: SPF2 (sun protection factor corresponding to UVB absorption)

COMPOUND	RESULT
C[C@@H]1O[C@@H](O[C@@H]2[C@@H](O)[C@H](OCCc3ccc(O)c(O)c3)O[C@H](CO)[C@H]2OC(=O)/C=C/c2ccc(O)c(O)c2)[C@H](O)[C@H](O)[C@H]1O [Verbascoside]	5.29

A: O=c1cc(-c2ccccc2)oc2cc(O)c(O)c(O)c12
B: O=c1c(O)c(-c2ccc(O)cc2O)oc2cc(O)cc(O)c12
C: O=C1c2c(O)cc(O)cc2O[C@H](c2ccc(O)c(O)c2)[C@H]1O
Could you please order the items by SPF2 (sun protection factor corresponding to UVB absorption), going from the lowest number to the highest? Please respond by ranking the labels in the order requested. B, A, C
(B: 3.48, A: 5.41, C: 8.39)
